tested on: Cyperus iria; assay: Preemergence weed control under flooded paddy conditions, CYPIR (Rice Flatsedge); format: in vivo; conditions: 0.2500 kg/ha; preemergence, flooded paddy; rated three to four weeks after treatment
readout_label: CYPIR herbicidal rating
Respond with the number and no other words.

compound	CYPIR herbicidal rating
COC(=O)C(C)Oc1cc(C)c(I)cc1-c1nsc2ccc(-n3c(=O)cc(C(F)(F)F)n(C)c3=O)cc12 (stereo not shown)	7.0

Task: So what CYPIR herbicidal rating did Cc1cccc(CS(=O)(=O)NC(=O)c2nsc3ccc(-n4c(=O)cc(C(F)(F)F)n(C)c4=O)cc23)c1 get with Cyperus iria?
Result: 6.0

Task: Lookup: CYPIR herbicidal rating / Cyperus iria / Cn1c(C(F)(F)F)cc(=O)n(-c2ccc3snc(C(=O)NS(=O)(=O)/C=C/c4ccccc4)c3c2)c1=O
Result: 6.0

Task: Quick check: CYPIR herbicidal rating on Cyperus iria, item Cn1c(C(F)(F)F)cc(=O)n(-c2cc3c(C(=O)NS(=O)(=O)Cc4ccccc4)nsc3cc2F)c1=O ?
Result: 6.0

Task: What is its CYPIR herbicidal rating for Cyperus iria? Entry: Cn1c(C(F)(F)F)cc(=O)n(-c2ccc3snc(COC(=O)c4ccncc4)c3c2)c1=O
Result: 9.0

Task: Record Cn1c(C(F)(F)F)cc(=O)n(-c2ccc3snc(C(=O)NO)c3c2)c1=O : what is its CYPIR herbicidal rating with Cyperus iria?
Result: 9.0

Task: What measured CYPIR herbicidal rating is associated with CC(C)c1nsc2ccc(-n3c(=O)cc(C(F)(F)F)n(C)c3=O)cc12 on Cyperus iria?
Result: 9.0
